- assay_procedure: chemical genetic growth profiling, strain panel (AID 1159580);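 note: tested at 20 µM; growth read once vehicle control cultures reached saturation at 30 °C; 1 = growth at the plate median or of vehicle wells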
- condition_info: S. cerevisiae deletion strains, growth OD, locus YNL322C, strain KRE1, hits give low values
About 2,000 (36%) of roughly 5,500 compounds were called active. About 18% were inconclusive and are not listed. The list shows a part of the results.
Exercise: state measured normalized growth for each of the compounds provided.
Simply state the number, no unit and no words.

Recorded normalized growth for `CC(=O)NCCCCCC(=O)O` , please? 1.01

Similarly, `O=C(Nc1ccccc1F)C(Cl)Cl` ? 0.987

Similarly, `CCSc1sc(C(=O)OC)c(-c2ccc(Cl)cc2)c1C#N` ? 0.99

Similarly, `O=C(O)C1=CCNCC1` ? 0.991

Similarly, CCCCC(CC)CN1CN(CC(CC)CCCC)CC(C)(N)C1 (configuration not stated) ? 0.336

Similarly, `Clc1cc(Cl)c(Cl)c(-n2cccc2)c1Cl` ? 0.956

Similarly, `COc1ccc2c(c1)[C@@]13CCCC[C@H]1[C@@H](C2)NCC3` ? 0.991

* * *

- assay_procedure: chemical genetic growth profiling, strain panel (AID 1159580)
- condition_info: S. cerevisiae deletion strains, growth OD, locus YGL173C, strain kem1, hits give low values
The whole screen tested about 5,500 compounds, of which about 2,000 (36%) were called active. Another 18% or so got no clear call; they are omitted. The list shows a part of the results.
Exercise: state measured normalized growth for each of the molecules provided.
Simply state the number, no unit and no words.

Recorded normalized growth for `Oc1ccc(Cl)c2cccnc12` , please? 0.0702

Similarly, `Oc1c(Br)cc(Br)c2cccnc12` ? 0.0675

Similarly, CN1C(CC(=O)c2ccccc2)CCCC1CC(O)c1ccccc1 (stereo not drawn) ? 0.982

Similarly, CC(C)(C)NCC(O)c1ccccc1Cl (stereo not drawn) ? 1.01

Similarly, `C=C(CC)C(=O)c1ccc(OCC(=O)O)c(Cl)c1Cl` ? 1

Similarly, `Nc1ncn([C@@H]2O[C@H](CO)[C@@H](O)[C@H]2O)c(=O)n1` ? 0.971

Similarly, `OC[C@@H]1CCCN2CCCC[C@H]12` ? 1.02

Similarly, `O=C(O)c1ccccc1Nc1ccccc1` ? 0.954

Similarly, C[C@H]1[C@H]2CCC3C4CC=C5C[C@@H](N(C)C)CC[C@]5(C)C4CC[C@@]32CN1C (stereo partly drawn) ? 0.99

Similarly, O=C1O[C@H](C(O)CO)C(O)=C1O (stereo partly drawn) ? 0.982

Similarly, `Cc1ccc2c(Cl)cc(Cl)c(O)c2n1` ? 1.02

Similarly, `O=C(O)CF` ? 1.03

Similarly, CCCCC(CC)CN1CN(CC(CC)CCCC)CC(C)(N)C1 (stereo not drawn) ? 0.0624

Similarly, `Nc1ccc(C(=O)NCC(=O)O)cc1` ? 1.01

Similarly, CC1(C)CCCC2(C)C3C1[C@@H](O)C2(C)C[C@H]3O (stereo partly drawn) ? 1.03

Similarly, COc1ccccc1OCCNCC(O)COc1cccc2[nH]c3ccccc3c12 (stereo not drawn) ? 1.03

Similarly, `C1CCN2C[C@@H]3C[C@H](CN4CCCC[C@@H]34)[C@H]2C1` ? 1.02

Similarly, `COC(C)(C)CCC[C@H](C)C/C=C/C(C)=C/C(=O)OC(C)C` ? 1.02

* * *

- assay_procedure: chemical genetic growth profiling, strain panel (AID 1159580)
- condition_info: S. cerevisiae deletion strains, growth OD, locus YJR043C, strain POL32, hits give low values
Screen size: about 5,500 compounds; about 2,000 (36%) were called active. Another 18% or so got no clear call; they are omitted. This is one part of the list.
readout_name: normalized growth
Simply state the number, no unit and no words.

Recorded normalized growth for `C[C@H](N)[C@H](O)c1ccc(O)c(O)c1` , please? 1.01

Similarly, CN1C(CC(=O)c2ccccc2)CCCC1CC(O)c1ccccc1 (stereo not drawn) ? 1

Similarly, Nc1nc2c(ncn2C2C[C@H](O)[C@@H](CO)O2)c(=O)[nH]1 (stereo partly drawn) ? 1

* * *

- assay_procedure: chemical genetic growth profiling, strain panel (AID 1159580);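 note: tested at 20 µM; growth read once vehicle control cultures reached saturation at 30 °C; 1 = growth at the plate median or of vehicle wells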
- condition_info: S. cerevisiae deletion strains, growth OD, locus YGR135W, strain pre9, hits give low values
The whole screen tested about 5,500 compounds, of which about 2,000 (36%) were called active. Inconclusive results (about 18%) are left out. Some of the results follow.
readout_name: normalized growth
Simply state the number, no unit and no words.

Recorded normalized growth for CCCC1O[C@@H]2CC3C4CCC5=CC(=O)C=CC5(C)C4[C@@H](O)CC3(C)[C@]2(C(=O)CO)O1 (stereo not given in full) , please? 0.998

Similarly, `COc1c2c(cc3c1OCO3)CCN(C)C2` ? 0.992

Similarly, `Nc1nc2ncc(C(=O)O)nc2c(=O)[nH]1` ? 1.01

Similarly, `CS(=O)(=O)CCCCN=C=S` ? 0.815

Similarly, `Oc1c(Br)cc(Br)c2cccnc12` ? 0.0723

Similarly, `O=C(O[C@@H]1Cc2c(O)cc(O)cc2O[C@@H]1c1cc(O)c(O)c(O)c1-c1c([C@H]2Oc3cc(O)cc(O)c3C[C@H]2O)cc(O)c(O)c1O)c1cc(O)c(O)c(O)c1` ? 0.429

Similarly, `O=C(O)CF` ? 1.01

Similarly, CCC(Cc1c(I)cc(I)c(N)c1I)C(=O)O (stereo not given) ? 1

Similarly, `C=C(CC)C(=O)c1ccc(OCC(=O)O)c(Cl)c1Cl` ? 1.05

Similarly, `Nc1ccc(C(=O)NCC(=O)O)cc1` ? 1.04

* * *

- assay_procedure: chemical genetic growth profiling, strain panel (AID 1159580);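 note: tested at 20 µM; growth read once vehicle control cultures reached saturation at 30 °C; 1 = growth at the plate median or of vehicle wells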
- condition_info: S. cerevisiae deletion strains, growth OD, locus YIL073C, strain SPO22, hits give low values
Out of some 5,500 compounds screened, about 2,000 (36%) were called active. Roughly 18% stayed inconclusive and do not appear here. This is one part of the list.
Flag rule - normalized growth less than 1 flags Y; the remaining entries get N.

hey, is normalized growth for `CCC[C@H]1CC2=C(C[C@@H](CC)CC3=C1C(=O)OC3=O)C(=O)OC2=O` lower than 1 or not? N

Similarly, CC1(C)CC2C1(O)CCC1(C)C=CC(O)C21CO (stereo not given) ? Y

Similarly, CCC(Cc1c(I)cc(I)c(N)c1I)C(=O)O (stereo not given) ? N

Similarly, `COC(C)(C)CCC[C@H](C)C/C=C/C(C)=C/C(=O)OC(C)C` ? N

Similarly, `CCOP(=S)(OCC)SCn1c(=O)oc2cc(Cl)ccc21` ? N

Similarly, CC1(C)C(C(Cl)Cl)C2(Cl)C(Cl)C(Cl)C1(Cl)C2(Cl)Cl (stereo not given) ? Y

Similarly, CSCCC(NC=O)C(=O)NC(C)C(=O)O (stereo not given) ? Y

Similarly, CC(C)NCC(O)c1ccc(O)c(O)c1 (stereo not given) ? N

Similarly, Nc1nc2c(ncn2C2C[C@H](O)[C@@H](CO)O2)c(=O)[nH]1 (stereo not given in full) ? N

Similarly, NCC(CC(=O)O)c1ccc(Cl)s1 (stereo not given) ? Y

Similarly, `OC[C@@H]1CCCN2CCCC[C@H]12` ? N

Similarly, `Nc1ncnc2c1ncn2[C@@H]1O[C@H](CO)[C@@H](O)[C@H]1O` ? Y

Similarly, C=CCC1(C(C)CCC)C(=O)N=C(S)NC1=O (stereo not given) ? Y

Similarly, `CS(=O)(=O)CCCCN=C=S` ? Y

Similarly, CC1(C)C(=O)C=C[C@@]2(C)C1=C(O)C(=O)[C@]1(C)C2CC[C@@]2(C)[C@H](c3ccoc3)C[C@H]3O[C@]321 (stereo not given in full) ? Y

* * *

- assay_procedure: chemical genetic growth profiling, strain panel (AID 1159580);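 note: tested at 20 µM; growth read once vehicle control cultures reached saturation at 30 °C; 1 = growth at the plate median or of vehicle wells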
- condition_info: S. cerevisiae deletion strains, growth OD, locus YML120C, strain ndi1
Screen size: about 5,500 compounds; about 2,000 (36%) were called active. About 18% were inconclusive and are not listed. Rule as the data show it: active = normalized growth mostly below about 0.91 (no sharp cut-off); inconclusive = no clear call, values can overlap the other calls; inactive = mostly above about 0.92. The list shows a part of the results.
The reply should name one outcome from active, inactive

What is the recorded call for this compound in the test? `CC(=O)NCCCCCC(=O)O` inactive

Similarly, C1CCN2CC3CC(CN4CCCCC34)C2C1 (stereo not given) ? inactive

Similarly, CC(=O)O[C@H]1C[C@@H](OC(C)=O)C(C)(C)C2C[C@@H](OC(C)=O)[C@@]3(C)C4=CC(=O)O[C@@H](c5ccoc5)[C@]4(C)CCC3[C@]21C (stereo not given in full) ? inactive

Similarly, `O=C(O)/C=C/C=C/c1ccccc1` ? active

Similarly, `C=C(C)[C@H]1CC=C(C(=O)O)CC1` ? inactive

Similarly, CC(C)NCC(O)c1ccc(O)c(O)c1 (stereo not given) ? inactive

Similarly, O=C1C=CC2=C3c4cc(O)c(O)cc4CC3(O)COC2=C1O (stereo not given) ? inactive

Similarly, `O=C(O[C@@H]1Cc2c(O)cc(O)cc2O[C@@H]1c1cc(O)c(O)c(O)c1-c1c([C@H]2Oc3cc(O)cc(O)c3C[C@H]2O)cc(O)c(O)c1O)c1cc(O)c(O)c(O)c1` ? inactive

Similarly, C=C(NC(=O)C(=C)NC(=O)c1csc(C2=NC3c4csc(n4)C4NC(=O)c5csc(n5)C(C(C)(O)C(C)O)NC(=O)C5CSC(=N5)C(=CC)NC(=O)C(C(C)O)NC(=O)c5csc(n5)C3(CC2)NC(=O)C(C)NC(=O)C(=C)NC(=O)C(C)NC(=O)C(C(C)CC)NC2C=Cc3c(C(C)O)cc(nc3C2O)C(=O)OC4C)n1)C(N)=O (stereo not given) ? inactive

Similarly, CC(C)=CCC[C@](C)(O)C1CC=C(C)CC1 (stereo not given in full) ? inactive
